# Test system: rodent lifetime carcinogenesis bioassay, tumor incidence TD50
# protocol.text: carcinogenic potency in animals, long-term in vivo studies, CPDB compilation (AID 1745844)
# recorded.conditions: mouse; strain B6C3F1; females; inhaled; site: liver; lesion: hemangiosarcoma; dosed 95 weeks; study length 95 weeks
property.name: TD50

Prompt line: Indicate the recorded TD50 value for this molecule: FC(F)=C(F)F
Response line: 66.5 mg/kg/day

###

# System: rodent lifetime carcinogenesis bioassay, tumor incidence TD50
# protocol.text: carcinogenic potency in animals, long-term in vivo studies, CPDB compilation (AID 1745844)
# recorded.conditions: rat; strain Fischer 344; males; by gavage; site: any site (literature study); lesion: several types; types named in the paper; dosed 100 weeks; study length 104 weeks
Activity calls are given as the source filed them. The rule behind the calls is not given here.
property.name: TD50

Prompt line: Indicate the recorded TD50 value for this molecule: O=[N+]([O-])c1ccc(Nc2ccc(Nc3ccccc3)c(S(=O)(=O)O)c2)c([N+](=O)[O-])c1
Response line: 270 mg/kg/day (inactive)
